Observed pKi for Epidermal growth factor receptor (Homo sapiens, UniProt P00533), reported per entry below.
pKi: −log10 of the molar value.
REPORTED_PROPERTY: pKi

Record excerpt, results attached:
{"LINE_NOTATION": "Nc1nc(NCc2ccccc2)c2c(n1)[nH]c1cc(Cl)c(O)cc12", "TARGET_UNDER_TEST": "Epidermal growth factor receptor (Homo sapiens, UniProt P00533)", "REPORTED_PROPERTY": "pKi", "VALUE": 6.57}
{"LINE_NOTATION": "Nc1nc(NCc2ccccc2)c2c(n1)[nH]c1ccc(O)cc12", "TARGET_UNDER_TEST": "Epidermal growth factor receptor (Homo sapiens, UniProt P00533)", "REPORTED_PROPERTY": "pKi", "VALUE": 6.15}
{"LINE_NOTATION": "Cc1cc2[nH]c3nc(N)nc(NCc4ccc(Cl)cc4)c3c2cc1O", "TARGET_UNDER_TEST": "Epidermal growth factor receptor (Homo sapiens, UniProt P00533)", "REPORTED_PROPERTY": "pKi", "VALUE": 6.96}
{"LINE_NOTATION": "COc1ccc(CNc2nc(N)nc3[nH]c4ccc(O)cc4c23)cc1", "TARGET_UNDER_TEST": "Epidermal growth factor receptor (Homo sapiens, UniProt P00533)", "REPORTED_PROPERTY": "pKi", "VALUE": 6.92}
{"LINE_NOTATION": "COc1cccc(CNc2nc(N)nc3[nH]c4ccc(O)cc4c23)c1", "TARGET_UNDER_TEST": "Epidermal growth factor receptor (Homo sapiens, UniProt P00533)", "REPORTED_PROPERTY": "pKi", "VALUE": 5.90}
{"LINE_NOTATION": "Nc1nc(NCc2cccc(Cl)c2)c2c(n1)[nH]c1ccc(O)cc12", "TARGET_UNDER_TEST": "Epidermal growth factor receptor (Homo sapiens, UniProt P00533)", "REPORTED_PROPERTY": "pKi", "VALUE": 6.54}
{"LINE_NOTATION": "C[C@H](Nc1nc(N)nc2[nH]c3ccc(O)cc3c12)c1ccccc1", "TARGET_UNDER_TEST": "Epidermal growth factor receptor (Homo sapiens, UniProt P00533)", "REPORTED_PROPERTY": "pKi", "VALUE": 6.28}

P = COc1ccc(CNc2nc(N)nc3[nH]c4cc(C)c(O)cc4c23)cc1
Q = COc1ccccc1CNc1nc(N)nc2[nH]c3ccc(O)cc3c12
Query :: Could you tell me which of these two has the smaller pKi figure? First: P Second: Q Lab log: write the label of the selected item as the result.
Result :: P

###

Molecular target: Casein kinase I isoform alpha (Homo sapiens)
Sequence (P48729 whole entry, canonical isoform): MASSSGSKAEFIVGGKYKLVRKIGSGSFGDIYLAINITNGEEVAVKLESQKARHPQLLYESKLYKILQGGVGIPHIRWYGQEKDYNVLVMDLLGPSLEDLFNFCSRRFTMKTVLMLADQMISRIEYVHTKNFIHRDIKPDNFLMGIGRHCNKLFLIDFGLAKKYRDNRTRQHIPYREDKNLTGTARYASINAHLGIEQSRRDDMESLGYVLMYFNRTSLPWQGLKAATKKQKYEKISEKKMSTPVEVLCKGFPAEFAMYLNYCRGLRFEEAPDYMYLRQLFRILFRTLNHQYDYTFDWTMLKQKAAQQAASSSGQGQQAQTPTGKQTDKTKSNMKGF
Assay: Inhibition of CK1 alpha (unknown origin)
pIC50: −log10 of the molar value.
REPORTED_PROPERTY: pIC50

The recorded pIC50 for `Cc1ccc(CNc2nc(N)nc3[nH]c4cc(C)c(O)cc4c23)cc1` is < 4.00

###

Target: Protein kinase C alpha type (Homo sapiens, UniProt P17252)
REPORTED_PROPERTY: IC50

Summary: `Cc1ccc(CNc2nc(N)nc3[nH]c4cc(C)c(O)cc4c23)cc1` , Protein kinase C alpha type (Homo sapiens, UniProt P17252), IC50 = > 100 µM

###

Molecular target: Mitogen-activated protein kinase kinase kinase 21 (Homo sapiens, UniProt Q5TCX8)
Sequence (Q5TCX8 whole entry): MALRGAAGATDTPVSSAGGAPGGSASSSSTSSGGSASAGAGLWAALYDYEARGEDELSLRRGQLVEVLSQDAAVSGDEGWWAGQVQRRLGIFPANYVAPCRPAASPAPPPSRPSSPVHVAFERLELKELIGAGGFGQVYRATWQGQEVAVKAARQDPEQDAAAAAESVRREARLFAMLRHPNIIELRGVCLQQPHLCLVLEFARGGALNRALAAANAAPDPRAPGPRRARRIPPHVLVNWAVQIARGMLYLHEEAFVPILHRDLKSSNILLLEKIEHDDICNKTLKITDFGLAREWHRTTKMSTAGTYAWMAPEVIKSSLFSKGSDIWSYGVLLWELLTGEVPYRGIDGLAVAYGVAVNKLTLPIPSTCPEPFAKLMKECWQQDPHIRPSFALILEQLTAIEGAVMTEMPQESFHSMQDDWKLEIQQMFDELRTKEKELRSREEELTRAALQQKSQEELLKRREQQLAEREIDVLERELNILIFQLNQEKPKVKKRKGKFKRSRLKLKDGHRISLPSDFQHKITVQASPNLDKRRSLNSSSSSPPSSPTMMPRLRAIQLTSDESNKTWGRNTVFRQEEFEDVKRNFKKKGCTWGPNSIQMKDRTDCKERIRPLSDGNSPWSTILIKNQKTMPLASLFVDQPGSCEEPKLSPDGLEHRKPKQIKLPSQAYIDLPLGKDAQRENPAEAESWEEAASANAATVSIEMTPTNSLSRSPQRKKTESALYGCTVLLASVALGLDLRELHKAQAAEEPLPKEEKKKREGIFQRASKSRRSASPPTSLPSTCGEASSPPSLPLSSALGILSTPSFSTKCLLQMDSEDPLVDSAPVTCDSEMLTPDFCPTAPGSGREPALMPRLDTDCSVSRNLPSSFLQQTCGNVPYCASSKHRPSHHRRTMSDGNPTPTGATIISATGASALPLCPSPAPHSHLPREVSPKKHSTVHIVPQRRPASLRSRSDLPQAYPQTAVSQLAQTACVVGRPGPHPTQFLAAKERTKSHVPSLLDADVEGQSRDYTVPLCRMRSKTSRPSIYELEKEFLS
Experiment: Inhibition of MLK4 (unknown origin)
pIC50: −log10 of the molar value.
REPORTED_PROPERTY: pIC50

Form field pIC50, entry `Cc1ccc(CNc2nc(N)nc3[nH]c4cc(C)c(O)cc4c23)cc1` : < 4.00

###

Target: Vascular endothelial growth factor receptor 2 (Homo sapiens, UniProt P35968)
Sequence (P35968 whole entry): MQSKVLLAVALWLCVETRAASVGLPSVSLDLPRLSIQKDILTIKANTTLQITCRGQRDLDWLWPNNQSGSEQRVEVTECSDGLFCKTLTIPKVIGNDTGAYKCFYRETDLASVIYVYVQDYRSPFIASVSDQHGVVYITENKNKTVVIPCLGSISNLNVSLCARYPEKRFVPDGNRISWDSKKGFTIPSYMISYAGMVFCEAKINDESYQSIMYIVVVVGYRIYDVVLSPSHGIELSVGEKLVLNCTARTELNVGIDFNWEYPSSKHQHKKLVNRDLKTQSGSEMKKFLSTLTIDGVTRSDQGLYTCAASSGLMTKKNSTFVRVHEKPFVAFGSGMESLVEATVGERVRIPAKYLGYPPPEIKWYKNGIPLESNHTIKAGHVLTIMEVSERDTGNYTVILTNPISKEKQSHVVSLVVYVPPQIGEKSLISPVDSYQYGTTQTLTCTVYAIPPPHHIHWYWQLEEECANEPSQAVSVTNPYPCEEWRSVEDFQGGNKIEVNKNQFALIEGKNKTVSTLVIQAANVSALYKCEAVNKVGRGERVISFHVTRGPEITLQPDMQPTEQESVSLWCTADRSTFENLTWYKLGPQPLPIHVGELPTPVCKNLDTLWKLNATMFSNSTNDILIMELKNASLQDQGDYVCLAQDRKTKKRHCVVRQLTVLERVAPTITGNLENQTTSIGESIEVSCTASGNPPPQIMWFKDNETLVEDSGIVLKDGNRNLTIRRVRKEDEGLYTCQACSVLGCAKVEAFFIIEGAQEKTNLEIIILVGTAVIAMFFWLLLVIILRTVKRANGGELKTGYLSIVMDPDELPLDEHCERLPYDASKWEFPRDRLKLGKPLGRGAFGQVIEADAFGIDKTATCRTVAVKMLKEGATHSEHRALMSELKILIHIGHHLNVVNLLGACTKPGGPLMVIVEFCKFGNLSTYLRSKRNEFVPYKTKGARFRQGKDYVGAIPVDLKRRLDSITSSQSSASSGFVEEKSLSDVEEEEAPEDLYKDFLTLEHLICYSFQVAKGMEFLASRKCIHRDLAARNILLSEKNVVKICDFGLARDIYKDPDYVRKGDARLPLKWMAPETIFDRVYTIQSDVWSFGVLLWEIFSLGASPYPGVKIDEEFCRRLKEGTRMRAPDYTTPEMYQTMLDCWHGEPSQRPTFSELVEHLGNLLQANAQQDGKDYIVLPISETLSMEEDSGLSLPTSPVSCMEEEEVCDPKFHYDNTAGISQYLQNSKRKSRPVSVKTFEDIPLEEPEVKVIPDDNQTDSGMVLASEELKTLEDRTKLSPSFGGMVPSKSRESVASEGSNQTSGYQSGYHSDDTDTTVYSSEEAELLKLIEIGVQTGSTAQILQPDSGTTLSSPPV
Experiment: Inhibition of VEGFR2 (unknown origin) using poly(Glu,Tyr)4:1 as substrate in presence of [gamma-33P]-ATP after 60 mins by scintillation counting analysis
Conditions: read-out: Ki
REPORTED_PROPERTY: Ki (µM)

Worked examples, 4 molecules total:
{"LINE_NOTATION": "COc1ccc(CNc2nc(N)nc3[nH]c4ccc(O)cc4c23)cc1OC", "VALUE": 11.1}
{"LINE_NOTATION": "Nc1nc(NCCc2ccccc2)c2c(n1)[nH]c1ccc(O)cc12", "VALUE": 4.47}
{"LINE_NOTATION": "C[C@H](Nc1nc(N)nc2[nH]c3ccc(O)cc3c12)c1ccccc1", "VALUE": 4.15}
{"LINE_NOTATION": "Nc1nc(NCc2ccccc2)c2c(n1)[nH]c1ccc(O)cc12", "VALUE": 2.76}

P = COc1cc2[nH]c3nc(N)nc(NCc4ccccc4)c3c2cc1O
Q = Nc1nc(NCc2ccc(Cl)cc2)c2c(n1)[nH]c1ccc(O)cc12
Query :: Form: Entry with minimum Ki (choose one): P / Q Your answer should be the label of the entry you select.
Result :: Q

###

Biological target: Death-associated protein kinase 1 (Homo sapiens)
Sequence (P53355 whole entry): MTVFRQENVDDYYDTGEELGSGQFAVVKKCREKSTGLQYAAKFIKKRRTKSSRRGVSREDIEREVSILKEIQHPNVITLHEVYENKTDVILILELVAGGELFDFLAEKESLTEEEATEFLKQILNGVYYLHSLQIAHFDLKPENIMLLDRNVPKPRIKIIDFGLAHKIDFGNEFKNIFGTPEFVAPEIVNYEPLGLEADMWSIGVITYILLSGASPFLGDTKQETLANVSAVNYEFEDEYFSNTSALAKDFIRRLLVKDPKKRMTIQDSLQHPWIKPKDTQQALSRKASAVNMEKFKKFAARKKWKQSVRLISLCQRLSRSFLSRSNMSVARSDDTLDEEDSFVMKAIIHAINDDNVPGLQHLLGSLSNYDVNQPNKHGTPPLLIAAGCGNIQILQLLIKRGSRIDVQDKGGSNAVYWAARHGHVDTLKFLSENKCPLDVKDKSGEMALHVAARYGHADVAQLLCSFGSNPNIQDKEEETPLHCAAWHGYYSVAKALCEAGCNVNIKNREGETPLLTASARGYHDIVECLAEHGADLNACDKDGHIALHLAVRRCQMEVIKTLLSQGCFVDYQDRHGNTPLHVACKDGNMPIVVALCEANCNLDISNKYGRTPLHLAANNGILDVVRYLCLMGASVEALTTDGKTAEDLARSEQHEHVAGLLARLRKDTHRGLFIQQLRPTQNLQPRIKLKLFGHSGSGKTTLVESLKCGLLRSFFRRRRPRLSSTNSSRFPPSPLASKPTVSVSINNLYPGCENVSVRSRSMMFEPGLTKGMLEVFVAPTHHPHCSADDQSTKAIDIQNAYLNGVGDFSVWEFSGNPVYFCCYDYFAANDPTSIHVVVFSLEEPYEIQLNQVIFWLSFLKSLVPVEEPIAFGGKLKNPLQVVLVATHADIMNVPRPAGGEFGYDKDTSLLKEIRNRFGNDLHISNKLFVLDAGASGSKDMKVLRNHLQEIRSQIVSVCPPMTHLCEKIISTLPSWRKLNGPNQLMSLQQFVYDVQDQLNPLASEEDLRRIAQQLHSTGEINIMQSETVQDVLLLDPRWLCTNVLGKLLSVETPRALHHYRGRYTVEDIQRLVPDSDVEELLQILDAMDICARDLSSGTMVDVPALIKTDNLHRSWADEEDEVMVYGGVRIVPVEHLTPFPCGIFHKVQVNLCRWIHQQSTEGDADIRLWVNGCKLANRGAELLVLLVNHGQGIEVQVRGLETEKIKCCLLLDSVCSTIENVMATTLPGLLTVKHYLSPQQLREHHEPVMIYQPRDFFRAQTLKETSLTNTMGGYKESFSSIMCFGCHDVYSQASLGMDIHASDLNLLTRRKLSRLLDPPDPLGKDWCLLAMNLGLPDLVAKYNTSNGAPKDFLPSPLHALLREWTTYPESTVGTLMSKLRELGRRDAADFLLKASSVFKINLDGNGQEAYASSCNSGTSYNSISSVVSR
REPORTED_PROPERTY: IC50

IC50 reading for `Cc1ccc(CNc2nc(N)nc3[nH]c4cc(C)c(O)cc4c23)cc1` : > 100 µM

###

Biological target: Vascular endothelial growth factor receptor 2 (Homo sapiens, UniProt P35968)
Experiment: Inhibition of VEGFR2 (unknown origin) using poly(Glu,Tyr)4:1 as substrate in presence of [gamma-33P]-ATP after 60 mins by scintillation counting analysis
REPORTED_PROPERTY: Ki

{"LINE_NOTATION": "Cc1ccc(CNc2nc(N)nc3[nH]c4cc(C)c(O)cc4c23)cc1", "REPORTED_PROPERTY": "Ki", "VALUE": "Not Active"}
{"LINE_NOTATION": "Cc1cc2[nH]c3nc(N)nc(NCc4ccc(Cl)cc4)c3c2cc1O", "REPORTED_PROPERTY": "Ki", "VALUE": "Not Active"}
{"LINE_NOTATION": "Nc1nc(NCc2ccccc2)c2c(n1)[nH]c1cc(Cl)c(O)cc12", "REPORTED_PROPERTY": "Ki", "VALUE": "Not Active"}
{"LINE_NOTATION": "Nc1nc(NCc2ccccc2)c2c(n1)[nH]c1cc(Br)c(O)cc12", "REPORTED_PROPERTY": "Ki", "VALUE": "Not Active"}

###

Molecular target: Dual specificity mitogen-activated protein kinase kinase 1 (Homo sapiens, UniProt Q02750)
Sequence (Q02750 whole entry): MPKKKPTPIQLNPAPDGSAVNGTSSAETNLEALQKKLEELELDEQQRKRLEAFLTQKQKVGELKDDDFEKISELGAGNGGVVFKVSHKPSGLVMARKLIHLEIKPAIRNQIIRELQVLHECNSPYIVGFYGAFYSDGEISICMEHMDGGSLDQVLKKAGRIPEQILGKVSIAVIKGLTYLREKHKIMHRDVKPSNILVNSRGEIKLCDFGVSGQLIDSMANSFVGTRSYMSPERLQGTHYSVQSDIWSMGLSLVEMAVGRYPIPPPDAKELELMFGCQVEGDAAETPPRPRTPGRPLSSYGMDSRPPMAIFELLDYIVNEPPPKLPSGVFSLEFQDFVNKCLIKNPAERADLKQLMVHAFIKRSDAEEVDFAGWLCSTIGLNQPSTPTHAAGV
Experiment: Inhibition of MEK1 (unknown origin)
pIC50: −log10 of the molar value.
REPORTED_PROPERTY: pIC50

Tested on Dual specificity mitogen-activated protein kinase kinase 1 (Homo sapiens, UniProt Q02750), the item `Cc1ccc(CNc2nc(N)nc3[nH]c4cc(C)c(O)cc4c23)cc1` showed pIC50 equal to < 4.00

###

Molecular target: Mitogen-activated protein kinase kinase kinase 2 (Homo sapiens, UniProt Q9Y2U5)
Sequence (Q9Y2U5 whole entry): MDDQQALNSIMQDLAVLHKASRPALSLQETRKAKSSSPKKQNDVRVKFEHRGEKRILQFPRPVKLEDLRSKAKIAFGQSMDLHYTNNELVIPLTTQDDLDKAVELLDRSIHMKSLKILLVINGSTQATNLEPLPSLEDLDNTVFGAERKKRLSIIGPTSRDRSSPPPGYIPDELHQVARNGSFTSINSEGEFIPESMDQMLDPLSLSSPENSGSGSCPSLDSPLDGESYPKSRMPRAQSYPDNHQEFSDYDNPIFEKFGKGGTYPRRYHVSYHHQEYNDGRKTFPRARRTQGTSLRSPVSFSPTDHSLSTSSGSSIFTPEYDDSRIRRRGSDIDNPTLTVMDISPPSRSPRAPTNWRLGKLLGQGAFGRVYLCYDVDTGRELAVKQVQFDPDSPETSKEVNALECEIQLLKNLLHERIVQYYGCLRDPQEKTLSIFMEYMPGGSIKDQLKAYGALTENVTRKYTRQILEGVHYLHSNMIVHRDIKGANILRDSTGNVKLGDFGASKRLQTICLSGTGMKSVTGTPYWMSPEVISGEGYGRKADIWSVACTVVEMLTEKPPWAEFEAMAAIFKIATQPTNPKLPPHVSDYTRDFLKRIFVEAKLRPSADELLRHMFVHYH
Experiment: Inhibition of MEKK2 (unknown origin)
REPORTED_PROPERTY: IC50

// recorded IC50 for `Cc1ccc(CNc2nc(N)nc3[nH]c4cc(C)c(O)cc4c23)cc1` : > 100 µM
